Test system: SB.mhdgc-1
Assay: viability at highest tested concentration (MAXR) relative to DMSO; higher = less cytotoxic
Settings: SB.mhdgc-1 (hereditary c.1380delA CDH1 gastric cancer)
Binary label based on viability with cut-off 50%: below gives satisfied, not below gives not satisfied.

compound	assayed_system	class_assignment
N\C1=N\C2=C(N=C[N]2COC(CO)CO)C(=O)N1 [Ganciclovir] (top concentration 46.0829 µM)	SB.mhdgc-1	not satisfied
CC[C@@H](C(N)=O)N1CCCC1=O [Levetiracetam] (top concentration 46.0829 µM)	SB.mhdgc-1	not satisfied
CC(C)(C)[C@]1(O)C[C@@H]2OC(=O)C[C@@]23C(=O)O[C@@H]2OC(=O)[C@H](O)C213 (stereo partly drawn) [Bilobalide] (top concentration 46.0829 µM)	SB.mhdgc-1	not satisfied
CC(C)(C)/[N+]([O-])=C/c1ccc([S+](=O)([O-])[O][Na])cc1[S+](=O)([O-])[O][Na] [Disufenton sodium] (top concentration 46.0829 µM)	SB.mhdgc-1	not satisfied
CC(C)(C)c1cc(NC(=O)Nc2ccc(-c3cn4c(n3)sc3cc(OCCN5CCOCC5)ccc34)cc2)no1 [Quizartinib] (top concentration 46.0829 µM)	SB.mhdgc-1	not satisfied
COc1cccc(OC)c1-c1cc(C(=O)NC2(C(=O)O)C3CC4CC(C3)CC2C4)nn1-c1ccnc2cc(Cl)ccc12 (stereo not drawn) [Meclinertant] (top concentration 46.0829 µM)	SB.mhdgc-1	not satisfied
O=C(NC1CCOCC1)c1ccc(-c2cc(-c3c[nH]nc3-c3ccccn3)ccn2)cc1 (top concentration 46.0829 µM)	SB.mhdgc-1	not satisfied
Cc1cc(SCc2sc(-c3ccc(C(F)(F)F)c(F)c3)nc2C)ccc1OCC(=O)O [GW-0742] (top concentration 46.0829 µM)	SB.mhdgc-1	not satisfied
COc1cc([C@@H]2c3cc4c(cc3[C@@H](O[C@@H]3O[C@@H]5CO[C@@H](c6cccs6)O[C@H]5[C@H](O)[C@H]3O)[C@H]3COC(=O)[C@H]23)OCO4)cc(OC)c1O [Teniposide] (top concentration 46.0829 µM)	SB.mhdgc-1	satisfied
Cc1coc2c1C(=O)C(=O)c1c-2ccc2c1CCCC2(C)C [Tanshinone IIA] (top concentration 46.0829 µM)	SB.mhdgc-1	satisfied
NC[C@H]1O[C@H](O[C@@H]2[C@H](O)[C@@H](O[C@H]3O[C@H](CO)[C@@H](O)[C@H](N)[C@H]3O)[C@H](N)C[C@@H]2N)[C@H](O)[C@@H](O)[C@@H]1O [Kanamycin] (top concentration 46.0829 µM)	SB.mhdgc-1	not satisfied
COCCCN1CCC(NC(=O)c2cc(Cl)c(N)c3c2OCC3)CC1 [Prucalopride] (top concentration 46.0829 µM)	SB.mhdgc-1	satisfied
NC1CC1c1ccccc1 (stereo not drawn) [Tranylcypromine] (top concentration 46.0829 µM)	SB.mhdgc-1	not satisfied
CC/1=C(/N2[C@H](SC1)[C@H](NC(=O)[C@H](N)\C3=C\C\C=C/C3)C2=O)C(O)=O [Cephradine] (top concentration 46.0829 µM)	SB.mhdgc-1	not satisfied
Nc1nc(Nc2ccc([S+](N)(=O)[O-])cc2)nn1C(=O)c1c(F)cccc1F (top concentration 46.0829 µM)	SB.mhdgc-1	not satisfied
NCC(=O)Nc1ccc(-n2nc(C(F)(F)F)cc2-c2ccc3c(ccc4ccccc43)c2)cc1 (top concentration 46.0829 µM)	SB.mhdgc-1	satisfied
CC(C)CN(C[C@@H](O)[C@H](Cc1ccccc1)NC(=O)O[C@H]1CCOC1)[S+](=O)([O-])c1ccc(N)cc1 [Amprenavir] (top concentration 46.0829 µM)	SB.mhdgc-1	satisfied
Cc1c(Cn2c(C)nc3c(C(=O)O)cc(N4CCOCC4)cc32)cccc1C(F)(F)F (top concentration 46.0829 µM)	SB.mhdgc-1	satisfied
O=C(/C=C/c1cccnc1)NCCCCC1CCN(C(=O)c2ccccc2)CC1 [Daporinad] (top concentration 46.0829 µM)	SB.mhdgc-1	satisfied
Cn1c(=O)c2[nH]cnc2n(C)c1=O [Theophyllamine] (top concentration 46.0829 µM)	SB.mhdgc-1	not satisfied
O=C1c2c(O)cc(O)cc2OC(c2ccc(O)c(O)c2)C1O (stereo not drawn) [Taxifolin] (top concentration 46.0829 µM)	SB.mhdgc-1	not satisfied
CCC(C1CCC(C)C(O1)C(C)C(O)C(C)C(=O)C(CC)C2OC\3(O[C@]4(CC[C@@](C)(O4)C5CC[C@@](O)(CC)C(C)O5)C(O)\C=C3)C(C)CC2C)C([O-])=O (stereo partly drawn) [Salinomycin] (top concentration 46.0829 µM)	SB.mhdgc-1	satisfied
